Reference source: ChEMBL document CHEMBL4402564

tested on: BXPC-3; assay: Antiproliferative activity against human BxPC3 cells after 72 hrs in presence of olaparib by CellTiter-Glo luminescent cell viability assay; assay type: functional, cell-based
The source made the active and inactive calls. The rule behind the calls is not given here.
reportedMetric: Activity

>  <molecule>
CC(=O)N1N=C(c2c(-c3ccccc3)c3cc(Cl)ccc3[nH]c2=O)CC1c1ccc(Cl)cc1 (racemic)

>  <Activity>
inactive

$$$$
>  <molecule>
O=C(O)CCC(=O)N1N=C(c2c(-c3ccccc3)c3cc(Cl)ccc3[nH]c2=O)CC1c1ccc(Br)cc1 (racemic)

>  <Activity>
inactive

$$$$
>  <molecule>
O=C(O)CCC(=O)N1N=C(c2c(-c3ccccc3)c3cc(Cl)ccc3[nH]c2=O)CC1c1ccc(-c2ccc(F)cc2)cc1 (racemic)

>  <Activity>
inactive

$$$$
>  <molecule>
CCC(=O)N1N=C(c2c(-c3ccccc3)c3cc(Cl)ccc3[nH]c2=O)CC1c1ccc(Cl)cc1 (racemic)

>  <Activity>
inactive

$$$$
>  <molecule>
CCCn1ncc2cc(C3CC(c4c(-c5ccccc5)c5cc(Cl)ccc5[nH]c4=O)=NN3C(C)=O)ccc21 (racemic)

>  <Activity>
inactive

$$$$

Need Activity for each of these molecules.
1. CCn1ccc2cc(C3CC(c4c(-c5ccccc5)c5cc(Cl)ccc5[nH]c4=O)=NN3C(=O)CCC(=O)O)ccc21 (racemic)
2. O=C(O)CCC(=O)N1N=C(c2c(-c3ccccc3)c3cc(Cl)ccc3[nH]c2=O)CC1c1ccc(-c2ccc(Br)cc2)cc1 (racemic)

1: inactive; 2: inactive

Given CCC(=O)N1N=C(c2c(-c3ccccc3)c3cc(Cl)ccc3[nH]c2=O)CC1c1ccc(Br)cc1 (racemic) , state its recorded Activity.
inactive
